The origin of these recorded values is PubChem BioAssay (NCI).

# Tested on: SF-295 CNS
# assay-overview: NCI-60 one-dose screen, 48 h (100 = growth as untreated, 0 = no growth, -100 = all killed)
# stated-conditions: 10 µM
Compounds without any hit were thinned out: in the full panel of roughly 83,000, 20% have a hit.
Use 50% as the dividing line for growth, with the line itself on the label 1 side and lower values as label 0.

[[record]]
compound = "CC1=CC2OC34COC3CC(OC(=O)C(F)(F)F)C4(C)C2(C)CC1 (stereo not drawn)"
measured_target = "SF-295 CNS"
assigned_label = "label 1"

[[record]]
compound = "O=C(Nc1cccc([N+](=O)[O-])c1)NN1CCCCCC1"
measured_target = "SF-295 CNS"
assigned_label = "label 1"

[[record]]
compound = "COC(=O)c1cnc2c(c1)Oc1ccccc1-c1ccnn1-2"
measured_target = "SF-295 CNS"
assigned_label = "label 1"

[[record]]
compound = "CC(=O)CS(C)(=O)=O"
measured_target = "SF-295 CNS"
assigned_label = "label 1"

[[record]]
compound = "O=C(Nc1ccc(CN2CCOCC2)cc1)c1ccc(-c2cc(Cl)ccc2Cl)o1"
measured_target = "SF-295 CNS"
assigned_label = "label 1"

[[record]]
compound = "Fc1ccc(-c2cc(C(Cl)Cl)no2)cc1"
measured_target = "SF-295 CNS"
assigned_label = "label 1"

[[record]]
compound = "COc1ccc2c(=O)cc(C(Cl)(Cl)Cl)oc2c1"
measured_target = "SF-295 CNS"
assigned_label = "label 0"

[[record]]
compound = "COc1cc2ccnc(C=O)c2cc1OC"
measured_target = "SF-295 CNS"
assigned_label = "label 1"

[[record]]
compound = "COc1ccc(-c2nc(-c3nc4ccc(OC)cc4[nH]3)c3ccccn23)cc1"
measured_target = "SF-295 CNS"
assigned_label = "label 1"

[[record]]
compound = "COc1ccc(S(=O)(=O)Nc2cc(/C=C\\c3cc(OC)c(OC)c(OC)c3)ccc2OC)cc1"
measured_target = "SF-295 CNS"
assigned_label = "label 0"

[[record]]
compound = "Cc1[nH]nc2c(=S)[nH]c(=O)[nH]c12"
measured_target = "SF-295 CNS"
assigned_label = "label 1"

[[record]]
compound = "CCn1nc(-c2ccc(C(=O)OC)cc2)nc2c(=O)n(C)c(=O)nc1-2"
measured_target = "SF-295 CNS"
assigned_label = "label 0"

[[record]]
compound = "CC1(C)CNC(=O)N1"
measured_target = "SF-295 CNS"
assigned_label = "label 1"

[[record]]
compound = "O=S(=O)(NCl)c1ccccc1"
measured_target = "SF-295 CNS"
assigned_label = "label 1"

[[record]]
compound = "O=C(OCc1ncc(-c2ccc(C(F)(F)F)cc2)c(NC2CCCCCC2)n1)c1c(F)c(F)c(F)c(F)c1F"
measured_target = "SF-295 CNS"
assigned_label = "label 0"

[[record]]
compound = "Cc1ccc(S(=O)(=O)N2CCc3ccccc3CC2)cc1"
measured_target = "SF-295 CNS"
assigned_label = "label 1"

[[record]]
compound = "CN1CCN(c2nc(-c3cccnc3)nc3sc4c(c23)CCCCCC4)CC1"
measured_target = "SF-295 CNS"
assigned_label = "label 1"

[[record]]
compound = "Cc1cc(O)c(C2=NN(c3ccc(S(N)(=O)=O)cc3)C(c3ccc(N(C)C)cc3)C2)c(C)c1Cl (stereo not drawn)"
measured_target = "SF-295 CNS"
assigned_label = "label 0"

[[record]]
compound = "CC(=O)/C(=C\\c1ccc(Cl)cc1)c1ccccc1"
measured_target = "SF-295 CNS"
assigned_label = "label 0"

[[record]]
compound = "COc1ccc(N2CCN(c3nc(-c4ccccc4)c(C#N)c(=O)[nH]3)CC2)cc1"
measured_target = "SF-295 CNS"
assigned_label = "label 1"

[[record]]
compound = "CN(C)CCCN(Cc1ccccc1O)C(=S)Nc1ccc(Cl)cc1"
measured_target = "SF-295 CNS"
assigned_label = "label 1"

[[record]]
compound = "C=CCc1cc(Nc2c3ccc(Cl)cc3nc3ccc(OC)cc23)cc(CN(CC)CC)c1O"
measured_target = "SF-295 CNS"
assigned_label = "label 0"

[[record]]
compound = "N#Cc1ccc(-n2cnc(NC(=O)[C@H]3CCN(C#N)C3)c2)cc1"
measured_target = "SF-295 CNS"
assigned_label = "label 0"


----------
Recorded growth by entry
# Tested on: MOLT-4 leukemia
# assay-overview: NCI-60 one-dose screen, 48 h (100 = growth as untreated, 0 = no growth, -100 = all killed)
# stated-conditions: 10 µM
This is part of a sample that, as a whole, favours compounds with a hit. Of some 83,000 tested, about 20% had one in any assay. Activity calls are given as the source filed them. How the source made its calls: active means growth percent below 10; inactive means the rest.
quantity-name: growth

[[record]]
compound = "CC(=O)N(O)c1ccc(/C=C/c2ccccc2)cc1"
reported_value = "41.8% (inactive)"

[[record]]
compound = "COc1ccc(-n2nnc3c(sc4ccccc43)c2=O)cc1"
reported_value = "99.5% (inactive)"

[[record]]
compound = "Cc1ccc(C)c2c1sc1nc3n[nH]c(N)c3c(=N)n12"
reported_value = "96% (inactive)"

[[record]]
compound = "C=CCOc1ccc2c(c1)CC[C@@H]1[C@@H]2CC[C@]2(C)C(=O)/C(=N/O)C[C@@H]12"
reported_value = "-31.7% (active)"

[[record]]
compound = "COc1ccc(-c2nc(-c3nc4ccc(C)cc4[nH]3)c3ccccn23)cc1"
reported_value = "40.4% (inactive)"

[[record]]
compound = "CCN(CC)CCOC(=O)c1ccc(NC(=O)Nc2cccc(Cl)c2)cc1"
reported_value = "84.9% (inactive)"

[[record]]
compound = "O=c1oc2cc(OS(=O)(=O)C3CC3)ccc2c2c1CCCCCC2"
reported_value = "65.6% (inactive)"

[[record]]
compound = "CCCOCC(O)CNCCN (centres undefined)"
reported_value = "115% (inactive)"

[[record]]
compound = "COc1ccc(Cn2cc3c(c2-c2ccccc2)CC(C)(C)c2cnoc2-3)cc1"
reported_value = "40% (inactive)"

[[record]]
compound = "CCCN(CCC)CCCNC(=O)c1cc2c(-c3ccc(OC)c(OC)c3)nn(C)c2s1"
reported_value = "-8.08% (active)"

[[record]]
compound = "COc1ccc(-c2cc(=O)n(-c3nc4ccccc4[nH]3)[nH]2)cc1OC"
reported_value = "-32% (active)"

[[record]]
compound = "COc1cc(-c2cc(-c3ccc(C)cc3)nc3nc(N)[nH]c(=O)c23)ccc1Oc1ccnc2cc(Cl)ccc12"
reported_value = "49.1% (inactive)"

[[record]]
compound = "Cc1[nH]nc2c(=S)[nH]c(=O)[nH]c12"
reported_value = "105% (inactive)"

[[record]]
compound = "COc1ccccc1Cn1cc2c(c1-c1ccccc1)CCc1cnoc1-2"
reported_value = "38.8% (inactive)"

[[record]]
compound = "Cn1cnc([N+](=O)[O-])c1Sc1nnc(-c2ccccc2)c(-c2ccccc2)n1"
reported_value = "41% (inactive)"

[[record]]
compound = "CCOC(=O)c1sc(Nc2ncccn2)nc1-c1ccccn1"
reported_value = "73.1% (inactive)"

[[record]]
compound = "COC(=O)c1ccc(Cn2ccc(=O)[nH]c2=O)cc1"
reported_value = "89.3% (inactive)"

[[record]]
compound = "N#CC1C=Cc2c(ccc3ccccc23)N1C(=O)c1ccccc1 (centres undefined)"
reported_value = "18.9% (inactive)"

[[record]]
compound = "COc1cccc(C(=O)NNc2nc(N3CCOCC3)nc(N3CCN(C(c4ccccc4)c4ccccc4)CC3)n2)c1"
reported_value = "63.2% (inactive)"

[[record]]
compound = "COc1cc([C@@H]2c3cc4c(cc3[C@H](SC(=N)N)[C@H]3COC(=O)[C@H]23)OCO4)cc(OC)c1OC"
reported_value = "26% (inactive)"

[[record]]
compound = "Nc1ccc(Sc2ccc3c4c2cccc4c(=O)n2c4ccccc4nc32)cc1"
reported_value = "-6.87% (active)"

[[record]]
compound = "C/C(=N/NC(=O)c1sc(=S)n(C)c1N)c1cc2cc(Cl)ccc2o1"
reported_value = "76.5% (inactive)"

[[record]]
compound = "Oc1ccccc1-c1nnc(Cn2c(Cc3cccc4ccccc34)nc3ccccc32)o1"
reported_value = "90.9% (inactive)"

[[record]]
compound = "CC1(C)CCc2cc(-c3ccn(S(=O)(=O)c4ccc(Cl)cc4)n3)ccc2O1"
reported_value = "65.4% (inactive)"

[[record]]
compound = "COc1ccc(Nc2ccnc(N3CCN(c4ccnc5cc(Cl)ccc45)CC3)n2)cc1"
reported_value = "-48.9% (active)"

[[record]]
compound = "CCOC(=O)C1=C(Nc2ccc(OC)cc2)C(N)=NC1=N"
reported_value = "26% (inactive)"

[[record]]
compound = "COc1ccc(NC(=O)CCn2cnc3c(cc(-c4ccccc4)n3-c3ccccc3)c2=O)cc1"
reported_value = "104% (inactive)"

[[record]]
compound = "COc1cc2c3c(cccc3c1)C(=O)N(CCN1CCCC1)C2=O"
reported_value = "4.5% (active)"

[[record]]
compound = "O=c1cc(CSc2nnc(-c3ccccc3)n2-c2ccc(F)cc2)c2ccc3ccccc3c2o1"
reported_value = "82.7% (inactive)"

[[record]]
compound = "CC(C)c1[nH]nc2c(NCc3ccc(-c4ccccn4)cc3)nc(SCCN(C)C)nc12"
reported_value = "-8.11% (active)"

[[record]]
compound = "C=CCN1C(=O)/C(=C\\c2ccc3c(c2)CCC3)SC1=S"
reported_value = "85.9% (inactive)"

[[record]]
compound = "N#CCC1CCCC1"
reported_value = "112% (inactive)"

[[record]]
compound = "CCCCCCCC/C=C/CCCCCCCCC1=NCCN1CCO"
reported_value = "34.3% (inactive)"

[[record]]
compound = "CCc1nn2c(-c3ccccc3)c(-c3cc(OC)c(OC)c(OC)c3)nc2s1"
reported_value = "72.4% (inactive)"

[[record]]
compound = "C/C(=N\\NC(=O)c1sc(=S)n(C)c1N)c1cc2ccccc2o1"
reported_value = "35.7% (inactive)"

[[record]]
compound = "C/C(=N\\NC(N)=S)C(C)(C)O"
reported_value = "44.9% (inactive)"

[[record]]
compound = "O=C(C=P(c1ccccc1)(c1ccccc1)c1ccccc1)c1ccc(Br)cc1"
reported_value = "0.436% (active)"

[[record]]
compound = "COc1ccc(C(=O)/C=C/c2cc(-c3ccc4c(c3)OCO4)n[nH]2)cc1OC"
reported_value = "-9.67% (active)"

[[record]]
compound = "COc1ccc(C2C=C(c3ccc(Cl)cc3)N=C3SC=CN32)c(Br)c1 (centres undefined)"
reported_value = "53.1% (inactive)"

[[record]]
compound = "CNC(=O)c1cc(Oc2ccc(NC(=O)Nc3ccc(Cl)c(C(C)(C)C)c3)c(F)c2)ccn1"
reported_value = "36.6% (inactive)"

[[record]]
compound = "O=c1ccc2nc(-c3ccccc3)nn(-c3ccccc3)c-2c1"
reported_value = "-37.9% (active)"

[[record]]
compound = "O=C(Nc1cccc(-c2nc3ccccc3[nH]2)c1)c1cccc(NC(=O)c2ccco2)c1"
reported_value = "86.4% (inactive)"

[[record]]
compound = "Fc1ccc(-c2cc(C(Cl)Cl)no2)cc1"
reported_value = "108% (inactive)"

[[record]]
compound = "O=C(O)c1cc(C(F)(F)F)cc(C(F)(F)F)c1"
reported_value = "95% (inactive)"

